# Test System: Penicillin-binding protein 2B (Streptococcus pneumoniae (strain ATCC BAA-255 / R6), UniProt P0A3M6, T446A)
# Sequence (P0A3M6 whole entry T446A): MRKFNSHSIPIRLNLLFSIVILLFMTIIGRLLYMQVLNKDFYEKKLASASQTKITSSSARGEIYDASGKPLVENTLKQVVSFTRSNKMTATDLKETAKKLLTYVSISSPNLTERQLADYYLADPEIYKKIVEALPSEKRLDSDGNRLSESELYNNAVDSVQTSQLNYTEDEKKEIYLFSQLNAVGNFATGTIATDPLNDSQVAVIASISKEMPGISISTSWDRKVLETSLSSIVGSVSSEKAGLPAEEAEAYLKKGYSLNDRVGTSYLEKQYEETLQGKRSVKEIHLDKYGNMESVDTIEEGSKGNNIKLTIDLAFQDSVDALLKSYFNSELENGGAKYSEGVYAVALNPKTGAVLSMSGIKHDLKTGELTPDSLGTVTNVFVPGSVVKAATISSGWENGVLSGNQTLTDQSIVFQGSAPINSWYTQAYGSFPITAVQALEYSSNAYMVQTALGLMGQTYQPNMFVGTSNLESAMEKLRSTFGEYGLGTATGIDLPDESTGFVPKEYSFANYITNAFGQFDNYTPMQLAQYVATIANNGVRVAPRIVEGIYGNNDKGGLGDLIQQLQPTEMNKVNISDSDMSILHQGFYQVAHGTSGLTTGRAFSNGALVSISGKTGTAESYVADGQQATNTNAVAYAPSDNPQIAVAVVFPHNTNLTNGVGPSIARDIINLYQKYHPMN
# Experimental Protocol: Inhibition of Bocillin FL binding to PBP2b Thr446Ala mutant in laboratory-derived Streptococcus pneumoniae isolate R6
pIC50: −log10 of the molar value.
Measured Quantity: pIC50

[
  {
    "Molecule": "Nc1nc(/C(=N/O)C(=O)N[C@@H]2C(=O)N3C(C(=O)O)=C(/C=C4\\CCN([C@@H]5CCNC5)C4=O)CS[C@H]23)ns1 [CEFTOBIPROLE]",
    "Measured Number": 5.88
  },
  {
    "Molecule": "CC1(C)S[C@@H]2[C@H](NC(=O)Cc3ccccc3)C(=O)N2[C@H]1C(=O)O [PENICILLIN G]",
    "Measured Number": 5.62
  }
]

* * *

# Test System: Penicillin-binding protein 2B (Streptococcus pneumoniae serotype 4 (strain ATCC BAA-334 / TIGR4))
# Sequence (P0A3M5 whole entry): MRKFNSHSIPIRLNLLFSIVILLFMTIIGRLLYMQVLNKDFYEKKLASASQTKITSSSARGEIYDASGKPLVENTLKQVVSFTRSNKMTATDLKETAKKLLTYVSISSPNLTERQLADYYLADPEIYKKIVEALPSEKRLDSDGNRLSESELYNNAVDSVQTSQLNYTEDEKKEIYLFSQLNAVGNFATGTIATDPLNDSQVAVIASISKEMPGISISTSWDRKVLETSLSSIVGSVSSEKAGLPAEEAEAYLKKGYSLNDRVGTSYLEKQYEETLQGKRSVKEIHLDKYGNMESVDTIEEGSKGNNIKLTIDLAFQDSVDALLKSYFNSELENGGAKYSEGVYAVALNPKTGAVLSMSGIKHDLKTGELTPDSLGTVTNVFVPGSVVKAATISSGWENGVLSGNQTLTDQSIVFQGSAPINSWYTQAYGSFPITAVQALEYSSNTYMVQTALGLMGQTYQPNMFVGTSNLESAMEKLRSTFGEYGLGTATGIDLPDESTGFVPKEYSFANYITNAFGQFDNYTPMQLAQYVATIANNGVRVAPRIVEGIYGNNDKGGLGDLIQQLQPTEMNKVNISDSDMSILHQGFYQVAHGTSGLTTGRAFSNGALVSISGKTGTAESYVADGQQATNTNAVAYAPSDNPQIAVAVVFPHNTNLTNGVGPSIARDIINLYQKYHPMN
# Experimental Protocol: Inhibition of Bocillin FL binding to Streptococcus pneumoniae isolate 8865 PBP2b
pIC50: −log10 of the molar value.

[
  {
    "Molecule": "CC1(C)S[C@@H]2[C@H](NC(=O)Cc3ccccc3)C(=O)N2[C@H]1C(=O)O [PENICILLIN G]",
    "Lt Gt Eq": "=",
    "pIC50": 7.62
  },
  {
    "Molecule": "CO/N=C(\\C(=O)N[C@@H]1C(=O)N2C(C(=O)O)=C(CSc3nc(=O)c(O)nn3C)CS[C@H]12)c1csc(N)n1 [CEFTRIAXONE]",
    "Lt Gt Eq": "<",
    "pIC50": 4.84
  },
  {
    "Molecule": "Nc1nc(/C(=N/O)C(=O)N[C@@H]2C(=O)N3C(C(=O)O)=C(/C=C4\\CCN([C@@H]5CCNC5)C4=O)CS[C@H]23)ns1 [CEFTOBIPROLE]",
    "Lt Gt Eq": "=",
    "pIC50": 6.95
  }
]
